Origin of the recorded values: patent US9808477B2

Test system: A549/T cells (PTX-resistant, ABCB1-overexpressing NSCLC cells)
assay.procedure: SRB cell cytotoxicity / MDR reversal assay
Assay type: cell-based, human
condition.label: drug +4.5 μM nobiletin (N)
metric.name: pIC50
Entry type: numeric. Quantity: pIC50, the -log10 of concentration in molar units.

Reading of pIC50 for `COc1cccc2c1C(=O)c1c(O)c3c(c(O)c1C2=O)C[C@@](O)(C(C)=O)C[C@@H]3O[C@H]1C[C@H](N)[C@H](O)[C@H](C)O1` with A549/T cells (PTX-resistant, ABCB1-overexpressing NSCLC cells): 6.15

// compound `CC(=O)O[C@H]1C(=O)[C@@]2(C)[C@H]([C@H](OC(=O)c3ccccc3)[C@]3(O)C[C@H](OC(=O)[C@H](O)[C@@H](NC(=O)c4ccccc4)c4ccccc4)C(C)=C1C3(C)C)[C@]1(OC(C)=O)CO[C@@H]1C[C@@H]2O` , assay A549/T cells (PTX-resistant, ABCB1-overexpressing NSCLC cells), pIC50 value: 7.05

Param item: `CC(=O)O[C@@]12CO[C@@H]1C[C@H](O)[C@@]1(C)C(=O)[C@H](O)C3=C(C)[C@@H](OC(=O)[C@H](O)[C@@H](NC(=O)OC(C)(C)C)c4ccccc4)C[C@@](O)([C@@H](OC(=O)c4ccccc4)[C@H]21)C3(C)C` ; param system: A549/T cells (PTX-resistant, ABCB1-overexpressing NSCLC cells); output pIC50: 6.15

Lab note: compound `O=c1[nH]cc(F)c(=O)[nH]1` tested on A549/T cells (PTX-resistant, ABCB1-overexpressing NSCLC cells); recorded pIC50 was 4.77

Item `COc1cccc2c1C(=O)c1c(O)c3c(c(O)c1C2=O)C[C@@](O)(C(=O)CO)C[C@@H]3O[C@H]1C[C@H](N)[C@H](O)[C@H](C)O1` ; assay system A549/T cells (PTX-resistant, ABCB1-overexpressing NSCLC cells); pIC50 reported as 5.92

----------
Can you tell me Fold reversal (IC50 without / with nobiletin) for the items I'm about to list?
Test system: A549/T cells (PTX-resistant, ABCB1-overexpressing NSCLC cells)
assay.procedure: SRB cell cytotoxicity / MDR reversal assay
Format: cell-based, human
condition.label: drug +0.5 μM nobiletin
Quick note: give the figure in fold, leave out the unit.

The value of Fold reversal (IC50 without / with nobiletin) measured for the compound COc1cccc2c1C(=O)c1c(O)c3c(c(O)c1C2=O)C[C@@](O)(C(C)=O)C[C@@H]3O[C@H]1C[C@H](N)[C@H](O)[C@H](C)O1 [Daunorubicin] turned out to be 1.68

compound CC(=O)O[C@@]12CO[C@@H]1C[C@H](O)[C@@]1(C)C(=O)[C@H](O)C3=C(C)[C@@H](OC(=O)[C@H](O)[C@@H](NC(=O)OC(C)(C)C)c4ccccc4)C[C@@](O)([C@@H](OC(=O)c4ccccc4)[C@H]21)C3(C)C [Docetaxel] , Fold reversal (IC50 without / with nobiletin) observed: 1.59

compound O=c1[nH]cc(F)c(=O)[nH]1 [5-Fluorouracil] , Fold reversal (IC50 without / with nobiletin) observed: 1.26

According to the records, this compound COc1cccc2c1C(=O)c1c(O)c3c(c(O)c1C2=O)C[C@@](O)(C(=O)CO)C[C@@H]3O[C@H]1C[C@H](N)[C@H](O)[C@H](C)O1 [Doxorubicin] displays Fold reversal (IC50 without / with nobiletin) of 1.42

Reported Fold reversal (IC50 without / with nobiletin) for CC(=O)O[C@H]1C(=O)[C@@]2(C)[C@H]([C@H](OC(=O)c3ccccc3)[C@]3(O)C[C@H](OC(=O)[C@H](O)[C@@H](NC(=O)c4ccccc4)c4ccccc4)C(C)=C1C3(C)C)[C@]1(OC(C)=O)CO[C@@H]1C[C@@H]2O [Paclitaxel] was 2.51
